- Subject Of Test: B-Raf (V600E)-kinase (Homo sapiens (Human), UniProt P15056, V600E)
- Sequence (P15056 whole entry V600E): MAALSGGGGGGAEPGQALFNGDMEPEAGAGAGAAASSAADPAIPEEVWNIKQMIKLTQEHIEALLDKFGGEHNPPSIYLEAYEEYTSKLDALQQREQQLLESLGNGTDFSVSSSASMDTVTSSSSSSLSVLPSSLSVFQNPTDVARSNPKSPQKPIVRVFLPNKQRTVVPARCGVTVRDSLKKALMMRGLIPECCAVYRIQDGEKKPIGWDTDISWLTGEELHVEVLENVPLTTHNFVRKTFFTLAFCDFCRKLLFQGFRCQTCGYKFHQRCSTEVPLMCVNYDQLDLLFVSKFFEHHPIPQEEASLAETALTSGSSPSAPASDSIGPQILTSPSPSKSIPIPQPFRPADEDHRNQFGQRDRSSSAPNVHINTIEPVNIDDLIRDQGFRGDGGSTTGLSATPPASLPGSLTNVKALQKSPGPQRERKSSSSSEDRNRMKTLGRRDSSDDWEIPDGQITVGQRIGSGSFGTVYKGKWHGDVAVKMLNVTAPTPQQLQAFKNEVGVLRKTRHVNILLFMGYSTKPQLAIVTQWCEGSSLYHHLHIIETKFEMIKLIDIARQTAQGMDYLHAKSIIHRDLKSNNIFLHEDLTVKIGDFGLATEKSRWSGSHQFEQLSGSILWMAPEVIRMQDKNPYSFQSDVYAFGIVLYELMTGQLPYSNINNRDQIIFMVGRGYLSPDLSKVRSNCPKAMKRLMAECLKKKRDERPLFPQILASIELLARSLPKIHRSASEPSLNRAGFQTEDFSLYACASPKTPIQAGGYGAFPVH
- Test: Kinase test B-RAF (V600E)
- Format: biochemical
- Test Conditions: B-RAF (V600E) kinase test, 250 μM ATP
- Protocol: Kinase Test B-RAF (V600E) In a dilution series 10 μL of test substance solution are placed in a multiwell plate. The dilution series is selected so that generally a range of concentrations of 2 μM to 0.119 nM or 0.017 nM is covered. […] After the addition of 200 μL Enhancement Solution (Perkin Elmer, #4001-0010/#1244-105) the mixture is shaken for 10 min at RT and then measured in a Wallac Victor using the program “Delfia Time Resolved Fluorescence (Europium)”. […]
pIC50: −log10 of the molar value.
Record Satisfied whenever pIC50 is at 8 or higher; record Not satisfied when lower.

Molecule: Cc1ccc(C(=O)Nc2cc(C(C)(C)C)on2)cc1Nc1ncnc2cnc(N3CCN(C)CC3)nc12 [III-504]
Subject Of Test: B-Raf (V600E)-kinase (Homo sapiens (Human), UniProt P15056, V600E)
Class: Satisfied
--
Molecule: Cc1ccc(C(=O)Nc2cc(C(C)(C)C)on2)cc1Nc1ncnc2cnc(N3CCN4CCCC4C3)nc12 (stereo not shown) [III-484]
Subject Of Test: B-Raf (V600E)-kinase (Homo sapiens (Human), UniProt P15056, V600E)
Class: Satisfied
--
Molecule: COc1ccc(C(C)(C)C)cc1NC(=O)c1ccc(C)c(Nc2ncnc3c(N)nc(N4CCN(C)CC4)nc23)c1 [I-53]
Subject Of Test: B-Raf (V600E)-kinase (Homo sapiens (Human), UniProt P15056, V600E)
Class: Not satisfied
--
Molecule: Cc1ccc(C(=O)Nc2ccccc2)cc1Nc1ncnc2cnc(N3CCCCC3)nc12 [III-253]
Subject Of Test: B-Raf (V600E)-kinase (Homo sapiens (Human), UniProt P15056, V600E)
Class: Not satisfied
--
Molecule: COc1ccc(NC(=O)c2ccc(F)c(Nc3ncnc4cnc(NC5CCOC5)nc34)c2)cc1C(F)(F)F (stereo not shown) [III-390]
Subject Of Test: B-Raf (V600E)-kinase (Homo sapiens (Human), UniProt P15056, V600E)
Class: Satisfied
--
Molecule: CCN1CCN(c2ncc3ncnc(Nc4cc(C(=O)Nc5cc(C(C)(C)C)on5)ccc4C)c3n2)CC1 [III-491]
Subject Of Test: B-Raf (V600E)-kinase (Homo sapiens (Human), UniProt P15056, V600E)
Class: Satisfied
--
Molecule: Cc1ccc(C(=O)Nc2cccc(C(F)(F)F)c2)cc1Nc1ncnc2cnc(N3CCN(CC4CCN(C)CC4)CC3)nc12 [III-417]
Subject Of Test: B-Raf (V600E)-kinase (Homo sapiens (Human), UniProt P15056, V600E)
Class: Satisfied
--
Molecule: COCCN1CCN(c2ncc3ncnc(Nc4cc(C(=O)Nc5ccc(C#N)c(C(F)(F)F)c5)ccc4C)c3n2)CC1 [III-532]
Subject Of Test: B-Raf (V600E)-kinase (Homo sapiens (Human), UniProt P15056, V600E)
Class: Satisfied

---

// reported pIC50 for each item listed
- Subject Of Test: B-Raf (V600E)-kinase (Homo sapiens (Human), UniProt P15056, V600E)
- Test: Kinase test B-RAF (V600E)
- Type: biochemical
- Test Conditions: B-RAF (V600E) kinase test, 250 μM ATP
- Method: Kinase Test B-RAF (V600E) In a dilution series 10 μL of test substance solution are placed in a multiwell plate. The dilution series is selected so that generally a range of concentrations of 2 μM to 0.119 nM or 0.017 nM is covered. […] After the addition of 200 μL Enhancement Solution (Perkin Elmer, #4001-0010/#1244-105) the mixture is shaken for 10 min at RT and then measured in a Wallac Victor using the program “Delfia Time Resolved Fluorescence (Europium)”. […]
pIC50: −log10 of the molar value.

Smiles Repr: Cc1ccc(C(=O)Nc2cccc(N(C)C)c2)cc1Nc1ncnc2cnc(N3CCCCC3)nc12
pIC50: 9.00

Smiles Repr: Cc1ccc(C(=O)Nc2cc(C(C)(C)C)nn2C)cc1Nc1ncnc2c(N)nc(N3CCN(CC(C)C)CC3)nc12
pIC50: 7.96

Smiles Repr: Cc1ccc(C(=O)Nc2cc(N3CCN(C)CC3)c(F)c(C(F)(F)F)c2)cc1Nc1ncnc2cnc(N3CCOCC3)nc12
pIC50: 9.00

Smiles Repr: O=C(Nc1cc(C(F)(F)F)ccn1)c1ccc(F)c(Nc2ncnc3cnc(N4CCOCC4)nc23)c1
pIC50: 9.00

Smiles Repr: Cc1ccc(C(=O)Nc2ccc(C(F)(F)F)cc2)cc1Nc1ncnc2c(N)nc(N3CCN(C4CCN(C)CC4)CC3)nc12
pIC50: 8.52

---

- Subject Of Test: B-Raf (V600E)-kinase (Homo sapiens (Human), UniProt P15056, V600E)
- Test: Kinase test B-RAF (V600E)
- Type: biochemical
- Test Conditions: B-RAF (V600E) kinase test, 250 μM ATP
pIC50: −log10 of the molar value.

Compound: COCCN(C)c1ncc2ncnc(Nc3cc(C(=O)Nc4cc(N(C)CCN(C)C)cc(C(F)(F)F)c4)ccc3C)c2n1
Comparison Sign: >
pIC50: 9.00
//
Compound: COCCN1CCN(c2ncc3ncnc(N(C)c4cc(C(=O)Nc5cc(C(C)(C)C)on5)ccc4C)c3n2)CC1
Comparison Sign: =
pIC50: 7.13
//
Compound: Cc1ccc(C(=O)Nc2ccccc2)cc1Nc1ncnc2cnc(N3CCOCC3)nc12
Comparison Sign: =
pIC50: 6.53
//
Compound: CC(C)N1CCN(c2ncc3ncnc(Nc4cc(C(=O)Nc5cc(C(C)(C)C)on5)ccc4F)c3n2)CC1
Comparison Sign: =
pIC50: 8.52
//
Compound: Cc1ccc(C(=O)Nc2cccc(OC(F)(F)F)c2)cc1Nc1ncnc2cnc(N3CCCC3)nc12
Comparison Sign: =
pIC50: 7.70
//
Compound: COc1ccc(NC(=O)c2ccc(C)c(Nc3ncnc4cnc(N5CCC[C@H]5CO)nc34)c2)cc1C(F)(F)F
Comparison Sign: =
pIC50: 8.40
//
Compound: CN1CCC(N2CCN(c3nc(N)c4ncnc(Nc5cccc(C(=O)Nc6cccc(C(F)(F)F)c6)c5)c4n3)CC2)CC1
Comparison Sign: =
pIC50: 7.66
//
Compound: CC(C)(C)c1cc(NC(=O)c2ccc(F)c(Nc3ncnc4cnc(N5CCCCC5)nc34)c2)no1
Comparison Sign: =
pIC50: 8.30
//
Compound: Cc1ccc(C(=O)NCC2CCOC2)cc1Nc1ncnc2cnc(N3CCCC3)nc12 (stereo not shown)
Comparison Sign: =
pIC50: 4.82
//
Compound: Cc1ccc(C(=O)NC2CC2)cc1Nc1ncnc2cnc(N(C)CCN(C)C)nc12
Comparison Sign: <
pIC50: 5.00
//
Compound: Cc1ccc(C(=O)Nc2nnc(C(F)(F)F)s2)cc1Nc1ncnc2cnc(N3CCCN(C)CC3)nc12
Comparison Sign: =
pIC50: 5.85
//
Compound: CN1CCC(CN2CCN(c3nc(N)c4ncnc(Nc5cccc(C(=O)Nc6cccc(C(F)(F)F)c6)c5)c4n3)CC2)CC1
Comparison Sign: =
pIC50: 7.89
//
Compound: Cc1ccc(C(=O)Nc2cc(C(C)(C)C)on2)cc1Nc1ncnc2c(N)nc(N3CCCN(C)CC3)nc12
Comparison Sign: =
pIC50: 9.00
//
Compound: CN(C)CCNc1ncc2ncnc(Nc3cc(C(=O)Nc4cc(C(C)(C)C)on4)ccc3Cl)c2n1
Comparison Sign: =
pIC50: 8.70
//
Compound: Cc1ccc(C(=O)Nc2cc(C(C)(C)C)on2)cc1Nc1ncnc2cnc(N3CCC[C@H]3CO)nc12
Comparison Sign: >
pIC50: 9.00
//
Compound: Cc1ccc(C(=O)Nc2cc(OCCN(C)C)cc(C(F)(F)F)c2)cc1Nc1ncnc2cnc(NCC3CCOC3)nc12 (stereo not shown)
Comparison Sign: >
pIC50: 9.00
//
Compound: Cc1ccc(C(=O)NC2CC2)cc1Nc1ncnc2cnc(N3CCN(C)CC3)nc12
Comparison Sign: <
pIC50: 4.82
//
Compound: Cc1ccc(C(=O)Nc2nnc(C(F)(F)F)s2)cc1Nc1ncnc2cnc(N3CC[C@H](F)C3)nc12
Comparison Sign: =
pIC50: 6.56
//
Compound: COc1ccc(NC(=O)c2ccc(C)c(Nc3ncnc4cnc(N5CCN(CC(C)C)CC5)nc34)c2)cc1C(F)(F)F
Comparison Sign: =
pIC50: 8.40
//
Compound: CCN1CCN(c2cc(NC(=O)c3ccc(C)c(Nc4ncnc5cnc(N6CC[C@H](F)C6)nc45)c3)cc(C(F)(F)F)c2)CC1
Comparison Sign: =
pIC50: 8.40
//
Compound: Cc1ccc(C(=O)Nc2cc(C(C)(C)C)nn2C)cc1Nc1ncnc2c(N)nc(N3CCN4CCCC4C3)nc12 (stereo not shown)
Comparison Sign: =
pIC50: 8.15
//
Compound: COc1ccc(NC(=O)c2ccc(C(F)(F)F)c(Nc3ncnc4cnc(N5CCOCC5)nc34)c2)cc1C(F)(F)F
Comparison Sign: =
pIC50: 8.30
